test system: mice; test: Kidney Toxicity Determined by Blood Examination (1); assay type: in vivo; conditions: mouse serum, 200 mg/kg
measure_name: Creatinine (mg/dL)
Report only the number, with the unit mg/dL understood.

Known Creatinine results, listed for orientation:
[[record]]
compound = "C=CCOC(=O)c1cc(C(=O)OCC=C)c2c(n1)C(=O)C(=O)c1cc(C(=O)OCC=C)[nH]c1-2"
measure_name = "Creatinine"
quantitative_readout = 0.1

[[record]]
compound = "O=C(O)c1cc(C(=O)O)c2c(n1)c1ncoc1c1cc(C(=O)O)[nH]c12"
measure_name = "Creatinine"
quantitative_readout = 0.81

[[record]]
compound = "CSCCc1nc2c3nc(C(=O)O)cc(C(=O)O)c3c3[nH]c(C(=O)O)cc3c2o1 [2-Methylthioethyl OPQ, 2-methylthioethyl OPQ (R= CH2 CH2 SCH3)]"
measure_name = "Creatinine"
quantitative_readout = 0.73

[[record]]
compound = "CCC(C)c1nc2c3nc(C(=O)O)cc(C(=O)O)c3c3[nH]c(C(=O)O)cc3c2o1 (centres unmarked) [1-Methylpropyl OPQ, 1-methylpropyl OPQ (R=CH(CH3)CH2 CH3)]"
measure_name = "Creatinine"
quantitative_readout = 0.83


Consider the additional compound presented here.
Provide measured Creatinine value, entry: `O=C(O)c1cc(C(=O)O)c2c(n1)c1nc(Cc3ccccc3)oc1c1cc(C(=O)O)[nH]c12` 0.73

# credit: patent US5369112A
